# SYSTEM_UNDER_TEST: T1, human MSLN-R3-3 polypeptide (human)
# T1 construct: also called human MSLN-R3-3 protein; hMSLN-R3-3
# ASSAY_PROCEDURE: ELISA, coated antigen; antibody 1 nM
Kindly state OD450 for each of the entries shown.
Answer format: number, then unit.

*Q* Look at this binder and give its reported OD450. S009-F3.16.1 (antibody, human IgG1, kappa, V domains shown, Human-murine chimeric antibody, human IgG1/kappa constant regions) VH: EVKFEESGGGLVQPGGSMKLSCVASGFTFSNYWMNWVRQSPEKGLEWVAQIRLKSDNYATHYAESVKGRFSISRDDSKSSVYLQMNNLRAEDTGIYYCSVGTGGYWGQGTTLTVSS VL: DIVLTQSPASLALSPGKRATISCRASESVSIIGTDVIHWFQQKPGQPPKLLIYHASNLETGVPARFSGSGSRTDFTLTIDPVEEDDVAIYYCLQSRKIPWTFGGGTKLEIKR
*A* 0.07 OD450

*Q* Reported OD450, binder S009-F3.38.10 (antibody, human IgG1, kappa, V domains shown, Human-murine chimeric antibody, human IgG1/kappa constant regions) VH: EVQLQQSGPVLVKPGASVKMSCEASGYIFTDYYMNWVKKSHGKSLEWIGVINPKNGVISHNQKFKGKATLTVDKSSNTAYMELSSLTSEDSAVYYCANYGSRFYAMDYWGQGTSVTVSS VL: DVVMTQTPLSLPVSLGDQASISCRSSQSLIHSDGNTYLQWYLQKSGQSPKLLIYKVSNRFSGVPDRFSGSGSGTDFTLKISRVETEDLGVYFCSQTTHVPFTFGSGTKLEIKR : ____
*A* 0.08 OD450

*Q* Query: OD450; subject: S009-F3.45.21 (antibody, human IgG1, kappa, V domains shown, Human-murine chimeric antibody, human IgG1/kappa constant regions) VH: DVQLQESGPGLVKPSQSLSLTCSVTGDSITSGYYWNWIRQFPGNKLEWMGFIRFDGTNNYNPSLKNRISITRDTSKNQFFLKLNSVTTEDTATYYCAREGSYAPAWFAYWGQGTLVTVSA VL: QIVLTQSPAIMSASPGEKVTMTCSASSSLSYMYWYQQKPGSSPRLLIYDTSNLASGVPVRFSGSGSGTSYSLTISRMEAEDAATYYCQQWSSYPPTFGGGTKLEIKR
*A* 0.07 OD450
